- ASSAY_TARGET: T1, PREP1hd-N (UniProt P55347 240-325)
- T1 sequence: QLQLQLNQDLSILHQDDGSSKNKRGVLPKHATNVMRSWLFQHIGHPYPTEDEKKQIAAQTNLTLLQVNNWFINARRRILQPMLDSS
- PROTOCOL_NOTES: fluorescence polarization; FP and EMSA: 20 mM Na/K phosphate pH 7.2, 150 mM NaCl, 5% glycerol, 1 mM TCEP, room temperature (FP 9 nM DNA, 30 min; EMSA gel run at 4 C in 0.5x TBE); NMR: 20
- DETAILS: protein: recombinant; tags: GST cleaved (pGEX-6P); label: 5' 6-FAM (FP); unlabeled in EMSA and NMR
OBSERVABLE: pKd
Give bare numbers, as −log10 of the molar value.

Entry PMH (dsDNA) DNA 1: AGTGATTGACAGATTC DNA 2: GAATCTGTCAATCACT : reported pKd = ?
4.63

This collection of values is drawn from paper PMC5240567.
